Tested on: NB4
ASSAY EXPLANATION: Leukemia cell growth inhibition, MTT, 72 h
Assay type: cell-based, human
RUN CONDITIONS: Homo sapiens, NB-4; 72 h, MTT
Lab note: class by IC50, see label 0 = under 0.2 µg/mL, label 1 = from 0.2 µg/mL up to 0.3 µg/mL, label 2 = 0.3 µg/mL and over

stdin: Which bin, given its IC50, does "C=C1C(=O)[C@]23[C@H](OC(=O)C4CCN(S(=O)(=O)c5ccccc5[N+](=O)[O-])CC4)[C@H]1CC[C@H]2[C@@]12CO[C@@]3(O)[C@@H](O)[C@@H]1C(C)(C)CCC2=O" occupy?
stdout: label 2

stdin: Just checking, what class would you give "C=C1C(=O)[C@]23[C@H](OC(=O)c4cccc(C)c4)[C@H]1CC[C@H]2[C@@]12CO[C@@]3(O)[C@@H](O)[C@@H]1C(C)(C)CCC2=O" here?
stdout: label 1

stdin: Assign a bin to "C=C1C(=O)[C@]23[C@H](OC(=O)c4ccc(OC)cc4)[C@H]1CC[C@H]2[C@@]12CO[C@@]3(O)[C@@H](O)[C@@H]1C(C)(C)CCC2=O"
stdout: label 0

stdin: Bin? "C=C1C(=O)[C@]23[C@H](OC(=O)c4cccnc4)[C@H]1CC[C@H]2[C@@]12CO[C@@]3(O)[C@@H](O)[C@@H]1C(C)(C)CCC2=O"
stdout: label 1

stdin: Please report the category associated with "C=C1C(=O)[C@]23[C@H](OC(=O)C4CCN(S(=O)(=O)c5cccc([N+](=O)[O-])c5)CC4)[C@H]1CC[C@H]2[C@@]12CO[C@@]3(O)[C@@H](O)[C@@H]1C(C)(C)CCC2=O" , nothing else.
stdout: label 2
